target: Escherichia coli DNA gyrase A/B tetramer (Escherichia coli, UniProt P0AES4+P0AES6); experiment: DNA gyrase supercoiling activity fluorescence polarisation assay; format: biochemical
measurement_kind: log10 of IC50 (log10 of the value in µM)
Lab note - IC50 converted to log10 from values in µM.

molecule="C[C@@H]1CN2c3ccc(-c4ccoc4)nc3CC3(C(=O)NC(=O)NC3=O)[C@H]2[C@H](C)O1 (relative stereo)" obs_value=1.32
molecule="C[C@@H]1CN2c3ncc(-c4cscn4)cc3CC3(C(=O)NC(=O)NC3=O)[C@H]2[C@H](C)O1 (relative stereo)" obs_value=0.85
molecule="C[C@@H]1CN2c3cnc(-c4nccs4)cc3CC3(C(=O)NC(=O)NC3=O)[C@H]2[C@H](C)O1 (racemic)" obs_value=1.79
molecule="COc1nc(-c2cnc3c(c2)CC2(C(=O)NC(=O)NC2=O)[C@H]2[C@H](C)O[C@H](C)CN32)cs1 (relative stereo)" obs_value=0.78

Shift focus to the following entry.
log10 of IC50 reported for this molecule C[C@@H]1CN2c3ccc(-c4ccnnc4)nc3CC3(C(=O)NC(=O)NC3=O)[C@H]2[C@H](C)O1 (relative stereo) : 0.30

---

Target: Escherichia coli DNA gyrase A/B tetramer (Escherichia coli, UniProt P0AES4+P0AES6)
Assay: DNA gyrase supercoiling activity fluorescence polarisation assay
Assay type: biochemical
Procedure: The supercoiling reactions may be quenched by the addition of 10 microliters/well of 40 nM oligodeoxynucleotide probe in 3× triplex-forming buffer consisting of 150 mM NaCl, and 150 mM sodium acetate at pH 3.5. […] After 60 minutes, the fluorescence anisotropy of the BODIPY-FL may be measured in a Tecan Ultra plate reader, using 485 nm excitation and 535 nm emission filters equipped with polarizers. The IC50 may be determined by nonliner regression using two control reactions. […]
measurement_kind: pIC50
Numbers only, as −log10 of the molar value.

Use the examples below as a reference point.
compound="C[C@@H]1CN2c3ccc(-c4cscn4)nc3CC3(C(=O)NC(=O)NC3=O)[C@H]2[C@H](C)O1 (relative stereo)" obs_value=5.70
compound="CC1CC(C)C2N(C1)c1cnc(Br)cc1CC21C(=O)NC(=O)NC1=O (stereo not shown)" obs_value=5.05

I would be grateful if you could provide pIC50 for each of the following entries.
1. C[C@@H]1CN2c3ncc(-c4cc5ccccc5s4)cc3CC3(C(=O)NC(=O)NC3=O)[C@H]2[C@H](C)O1 (relative stereo)
2. C[C@@H]1CN2c3ncc(-c4cncnc4)cc3CC3(C(=O)NC(=O)NC3=O)[C@H]2[C@H](C)O1 (relative stereo)

Return:
5.70
4.52

---

biological target: Escherichia coli DNA gyrase A/B tetramer (Escherichia coli, UniProt P0AES4+P0AES6); experiment: DNA gyrase supercoiling activity fluorescence polarisation assay; type: biochemical
Threshold 6 µM: IC50 strictly smaller gives y, otherwise n.

Study these solved cases before continuing.
molecule="C[C@@H]1CN2c3ncc(-c4ccc(Cl)cn4)cc3CC3(C(=O)NC(=O)NC3=O)[C@H]2[C@H](C)O1 (relative stereo) [Example 42]" discrete_label=y
molecule="O=C1NC(=O)C2(Cc3ccnc(Cl)c3N3CCCCC32)C(=O)N1 (stereo not drawn) [Example 4]" discrete_label=n
molecule="C[C@@H]1CN2c3ncc(-c4cnccn4)cc3CC3(C(=O)NC(=O)NC3=O)[C@H]2[C@H](C)O1 (relative stereo) [Example 52]" discrete_label=y
molecule="C[C@@H]1CN2c3ccc(-c4nc5ccccc5s4)nc3CC3(C(=O)NC(=O)NC3=O)[C@H]2[C@H](C)O1 (relative stereo) [Example 88]" discrete_label=y

--- query ---
Enquiry: Determine whether this molecule shows IC50 lower than 6 µM (ties excluded): C[C@@H]1CN2c3ncc(-c4cncn4C)cc3CC3(C(=O)NC(=O)NC3=O)[C@H]2[C@H](C)O1 (relative stereo) [Example 90]
Return: n

Data provenance: patent US20110178064A1
